Value source: patent US10544130B2

- System: Serratia marcescens expressing IMP-1 (CL5741)
- Assay type: cell-based
- RUN CONDITIONS: with imipenem 1 μg/ml; 95% inhibition of bacterial growth
Reported Serratia marcescens (IMP-1) MITC95 values for the following compounds.
A number alone suffices; assume µM.

Challenge: Value lookup for Serratia marcescens (IMP-1) MITC95; key = N[C@H]1C=C(c2ccc(S(=O)(=O)N[C@@H]3CCNC3)c(S(N)(=O)=O)c2-c2nn[nH]n2)CCC1
Response given: 1.563

Challenge: Value lookup for Serratia marcescens (IMP-1) MITC95; key = NCc1sc(N)nc1-c1cccc(-c2ccc(S(=O)(=O)N[C@@H]3CCNC3)c(S(N)(=O)=O)c2-c2nnn[nH]2)c1
Response given: 0.7813

Challenge: Value lookup for Serratia marcescens (IMP-1) MITC95; key = NC[C@H](CO)NS(=O)(=O)c1ccc(-c2cccc3[nH]nnc23)c(-c2nn[nH]n2)c1S(N)(=O)=O
Response given: 1.563

Challenge: Value lookup for Serratia marcescens (IMP-1) MITC95; key = Nc1ncc(-c2cc(-c3ccc(S(=O)(=O)N[C@@H]4CCNC4)c(S(N)(=O)=O)c3-c3nnn[nH]3)ccn2)[nH]1
Response given: 1.563

----------
- Test system: Pseudomonas aeruginosa PAO1 MB9798 (efflux+, IMP-1)
- RUN CONDITIONS: ratio MITC95 PA 9798/MITC95 PA 9799; imipenem at 2 μg/mL
MEASURED ENDPOINT: Efflux ratio
Give a plain numeric answer without units written out.

Known Efflux ratio results, listed for orientation:
compound="Nc1nc2c(-c3ccc(S(=O)(=O)N[C@@H]4CNC[C@H]4O)c(S(N)(=O)=O)c3-c3nnn[nH]3)cccc2[nH]1 [Example 171]" value_measured=0.50
compound="NCCNS(=O)(=O)c1ccc(-c2cccc3oc(N)nc23)c(-c2nn[nH]n2)c1S(N)(=O)=O [Example 11]" value_measured=1.00
compound="C[C@H](CN)NS(=O)(=O)c1ccc(-c2cccc3[nH]c(N)nc23)c(-c2nn[nH]n2)c1S(N)(=O)=O [Example 187]" value_measured=0.50
compound="NCCNS(=O)(=O)c1ccc(-c2cccc3[nH]c(CCN)nc23)c(-c2nn[nH]n2)c1S(N)(=O)=O [Example 337]" value_measured=2.00
compound="Nc1nc2c(-c3ccc(S(=O)(=O)N[C@@H]4CNC[C@@H]4N)c(S(N)(=O)=O)c3-c3nn[nH]n3)cccc2[nH]1 [Example 240]" value_measured=1.00

Challenge: Value lookup for Efflux ratio; key = Nc1cncc(-c2ccc(S(=O)(=O)N[C@@H]3CCNC3)c(S(N)(=O)=O)c2-c2nn[nH]n2)c1 [Example 219]
Response given: 1.00

Challenge: Value lookup for Efflux ratio; key = Cn1nc2cccc(-c3ccc(S(=O)(=O)N[C@@H]4CCNC4)c(S(N)(=O)=O)c3-c3nn[nH]n3)c2n1 [Example 281]
Response given: 2.00

Challenge: Value lookup for Efflux ratio; key = C[C@H](CN)NS(=O)(=O)c1ccc(-c2cccc3[nH]c(CN)nc23)c(-c2nn[nH]n2)c1S(N)(=O)=O [Example 383]
Response given: 1.00

Challenge: Value lookup for Efflux ratio; key = Nc1nc2c(-c3ccc(S(=O)(=O)N[C@@]4(CO)CCNC4)c(S(N)(=O)=O)c3-c3nnn[nH]3)cccc2[nH]1 [Example 176]
Response given: 1.00

Challenge: Value lookup for Efflux ratio; key = Nc1ncc(-c2ccc(S(=O)(=O)N[C@@H]3CNC[C@@H]3N)c(S(N)(=O)=O)c2-c2nn[nH]n2)s1 [Example 321]
Response given: 2.00

Challenge: Value lookup for Efflux ratio; key = Nc1ccc(-c2ccc(S(=O)(=O)N[C@H]3CCNC3)c(S(N)(=O)=O)c2-c2nn[nH]n2)cn1 [Example 195]
Response given: 1.00
